Assay system: T1, human glucose-dependent insulinotropic polypeptide receptor (human, UniProt P48546 22-466)
T1 sequence (looked up): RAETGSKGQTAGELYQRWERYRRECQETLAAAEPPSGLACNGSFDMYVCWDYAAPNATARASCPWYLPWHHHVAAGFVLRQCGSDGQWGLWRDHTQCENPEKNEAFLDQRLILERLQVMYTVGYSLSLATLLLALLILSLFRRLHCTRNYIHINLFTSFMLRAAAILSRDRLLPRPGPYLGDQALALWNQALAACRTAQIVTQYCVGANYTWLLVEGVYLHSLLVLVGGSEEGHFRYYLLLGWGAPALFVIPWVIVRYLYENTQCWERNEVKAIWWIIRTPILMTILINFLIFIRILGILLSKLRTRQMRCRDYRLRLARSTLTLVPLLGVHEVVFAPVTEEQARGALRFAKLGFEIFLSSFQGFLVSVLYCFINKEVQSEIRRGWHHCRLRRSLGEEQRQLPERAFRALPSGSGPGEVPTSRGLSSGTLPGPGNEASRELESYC
Protocol notes: cell-based or functional assay
Where no end group is shown, it is not given here. [ ]: non-standard residue; d: D form. Aib = CC(C)(N)C(=O)O
Experimental readout: hGIPR CRE Luc EC50 (pM)

Binder | Experimental readout | Measure unit | Measurement
Y[Aib]QGTFTSDYSIYLDKQAA[Aib]EFVNWLLAGGPSSGKPPPS-NH2 (not fully specified (residue 35)) [Compound No. 66] | hGIPR CRE Luc EC50 (pM) | pM | 26
Y[Aib]QGTFTSDYSIYLDKQAAKEFVNWLLAGGPSSGAPPPS-NH2 (not fully specified (residue 20); printed as Y-Aib-QGTFTSDYSIYLDKQAA-K[2-[2-[2-[[2-[2-[2-[[(4S)-4-carboxy-4-(17-carboxyheptadecanoylamino)butanoyl]amino]ethoxy]ethoxy]acetyl]amino]ethoxy]ethoxy]acetyl]-EFVNWLLAGGPSSGAPPPS-NH2) [Compound No. 60] | hGIPR CRE Luc EC50 (pM) | pM | 416
Y[Aib]QGTFTSDYSIYLDKQAA[Aib]EFVNWLLAGGPSSGAPPPS-NH2 (not fully specified (residue 16); printed as Y-Aib-QGTFTSDYSIYLD-K[2-[2-[2-[[2-[2-[2-[[(4S)-4-carboxy-4-(17-carboxyheptadecanoylamino)butanoyl]amino]ethoxy]ethoxy]acetyl]amino]ethoxy]ethoxy]acetyl]-QAA-Aib-EFVNWLLAGGPSSGAPPPS-NH2) [Compound No. 1] | hGIPR CRE Luc EC50 (pM) | pM | 23.7
Y[Aib]QGTFTSDYSIKLDKQAA[Aib]EFVNWLLAGGPSSGAPPPS-NH2 (not fully specified (residue 13)) [Compound No. 62] | hGIPR CRE Luc EC50 (pM) | pM | 65
Y[Aib]QGTFTSDYSIYLDKQAA[Aib]KFVNWLLAGGPSSGAPPPS-NH2 (not fully specified (residue 21); printed as Y-Aib-QGTFTSDYSIYLDKQAA-Aib-K[2-[2-[2-[[2-[2-[2-[[(4S)-4-carboxy-4-(17-carboxyheptadecanoylamino)butanoyl]amino]ethoxy]ethoxy]acetyl]amino]ethoxy]ethoxy]acetyl]-FVNWLLAGGPSSGAPPPS-NH2) [Compound No. 3] | hGIPR CRE Luc EC50 (pM) | pM | 27.5
Y[Aib]QGTFTSDYSIYLDKQAA[Aib]EFVNWLLAKGPSSGAPPPS-NH2 (not fully specified (residue 29)) [Compound No. 65] | hGIPR CRE Luc EC50 (pM) | pM | 56
Y[Aib]QGTFTSDYSIYLDKQAA[Aib]EFVNWLLAGGPSSGAPPPSK-NH2 (not fully specified (residue 40)) [Compound No. 59] | hGIPR CRE Luc EC50 (pM) | pM | 44.5
Y[Aib]QGTFTSDYSIYKDKQAA[Aib]EFVNWLLAGGPSSGAPPPS-NH2 (not fully specified (residue 14)) [Compound No. 63] | hGIPR CRE Luc EC50 (pM) | pM | 175
Y[Aib]QGTFTSDYSIYLDKQAA[Aib]EFVKWLLAGGPSSGAPPPS-NH2 (not fully specified (residue 24)) [Compound No. 64] | hGIPR CRE Luc EC50 (pM) | pM | 174
